Assay Info: Solubility in water at 25 °C
Assay type: physicochemical
Condition Set: read-out: WS, water solubility
Outcome Measure: solubility

1. CCCCCCCCCCCCSC[C@H]1O[C@@H]2O[C@H]3[C@H](O)[C@@H](O)[C@@H](O[C@H]4[C@H](O)[C@@H](O)[C@@H](O[C@H]5[C@H](O)[C@@H](O)[C@@H](O[C@H]6[C@H](O)[C@@H](O)[C@@H](O[C@H]7[C@H](O)[C@@H](O)[C@@H](O[C@H]1[C@H](O)[C@H]2O)O[C@@H]7CO)O[C@@H]6CO)O[C@@H]5CO)O[C@@H]4CO)O[C@@H]3CO	> 10000 µg/mL
2. CCCCCCCCCCCCSC[C@H]1O[C@@H]2O[C@H]3[C@H](O)[C@@H](O)[C@@H](O[C@H]4[C@H](O)[C@@H](O)[C@@H](O[C@H]5[C@H](O)[C@@H](O)[C@@H](O[C@H]6[C@H](O)[C@@H](O)[C@@H](O[C@H]7[C@H](O)[C@@H](O)[C@@H](O[C@H]8[C@H](O)[C@@H](O)[C@@H](O[C@H]1[C@H](O)[C@H]2O)O[C@@H]8CO)O[C@@H]7CO)O[C@@H]6CO)O[C@@H]5CO)O[C@@H]4CO)O[C@@H]3CO	> 10000 µg/mL
